# Assay comment: qHTS assay to identify small molecule agonists of the progesterone receptor (PR) signaling pathway - cell viability counter screen (AID 1346799); further: nearly all actives have a fitted effect of over 45% in size; further: potency means the concentration at half of the fitted maximal effect
# Measurement conditions: PR-UAS-bla HEK293T viability, CellTiter-Glo luminescence, 16 h; series mostly up to 92.4 µM
# Text: National Center for Advancing Translational Sciences [NCATS] NIH Chemical Genomics Center [NCGC] U.S. Environmental Protection Agency [EPA] National Institutes of Environmental Health Sciences [NIEHS] National Toxicology Program [NTP] U.S. Food and Drug Administration [FDA] Progesterone receptor (PR), a nuclear hormone receptor, plays an important role in development, metabolic homeostasis and reproduction. It is activated by the steroid hormone progesterone. […]
Records with an inconclusive call do not appear. Active and inactive are the calls of the source. The call rests on the fitted dose curve.
Readout label: Potency

For orientation, consider the following solved cases.
{"Molecule": "COC(=O)CC#N", "Potency": "inactive"}
{"Molecule": "CS(C)(=O)=O", "Potency": "inactive"}
{"Molecule": "CC(C)N=C(N)/N=C(\\N)Nc1ccc(Cl)cc1", "Potency": "inactive"}
{"Molecule": "O[C@@H](c1cc(C(F)(F)F)nc2c(C(F)(F)F)cccc12)[C@H]1CCCCN1", "Potency": "26.6 µM (active)"}
{"Molecule": "Cc1ccc(CCn2c3c(c4cc(Cl)ccc42)CN(C)CC3)cn1", "Potency": "21.1 µM (active)"}

Now consider the entry below.
Sure, the documented Potency for CCNc1nc(NC(C)CC)nc(OC)n1 (centres undefined) is inactive

---

# Assay comment: Caspase-3/7 induction in HepG2 cells by small molecules, qHTS assay (AID 1346978); further: nearly all actives have a fitted effect of over 15% in size
# Measurement conditions: HepG2 caspase-3/7 activation, Caspase-Glo luminescence, 17 h; series mostly up to 92.4 µM
Inconclusive results are not listed. The source made the active and inactive calls. The call rests on the fitted dose curve; in most records, active means well fitted activation curve with a large enough effect in the repeat runs; inconclusive means weak or mixed curves; inactive means flat fitted curve, though single readings scatter.
Returns: one label drawn from 1 = active, -1 = inactive

Incoming: // outcome(item) with item = `CN(Cc1cc(Br)cc(Br)c1N)C1CCCCC1`
Outgoing: -1

Incoming: Answer briefly: the call reported for `C=C(c1ccc(C(=O)O)cc1)c1cc2c(cc1C)C(C)(C)CCC2(C)C` in this assay.
Outgoing: 1

Incoming: What was the test verdict on `CCCCOCC` ?
Outgoing: -1

Incoming: Which outcome was assigned to `CCCSS/C(CCO)=C(\C)N(C=O)Cc1cnc(C)nc1N` in this test?
Outgoing: -1

Incoming: Returns: the outcome recorded for CCCCCCC(C)Nc1ccc(Nc2ccccc2)cc1 (stereo unspecified) in this assay.
Outgoing: -1

Incoming: Tell me the assay call for C=CC(C)(CCC=C(C)C)OC(=O)/C=C/c1ccccc1 (stereo unspecified) please.
Outgoing: -1

Incoming: Dear all, I need the recorded test outcome for `CC[N+](CC)(CC)Cc1ccccc1` , thank you.
Outgoing: -1

Incoming: What did the test return for `Cc1cc(Nc2ccc(O)cc2)ccc1N` ?
Outgoing: -1

Incoming: What call does the record list for `CC1=C(/C=C/C(C)=C/C=C/C(C)=C\C=O)C(C)(C)CCC1` ?
Outgoing: -1

Incoming: Which outcome was assigned to `C/C=C/C=N/NC(=O)c1ccncc1` in this test?
Outgoing: -1

Incoming: Each compound tested received a call. Report the one for `O=c1cccc[nH]1` .
Outgoing: -1

Incoming: Give the logged outcome of this assay for the following compound: `CCCCCCCCCCCCCOP(=O)(O)O`
Outgoing: -1

Incoming: Look up the recorded call for `CO[C@H]1C=CO[C@@]2(C)Oc3c(C)c(O)c4c(O)c(cc(O)c4c3C2=O)NC(=O)/C(C)=C\C=C/[C@H](C)[C@H](O)[C@@H](C)[C@@H](O)[C@@H](C)[C@H](OC(C)=O)[C@@H]1C` in this test.
Outgoing: -1

Incoming: Any idea what this test logged for `CN(C)c1ccc(N=NS(=O)(=O)O)cc1` ?
Outgoing: -1

Incoming: Kindly provide the recorded test outcome for the following compound: `CCOC(=O)CN`
Outgoing: -1

Incoming: Record request — test call for `c1cc2c3c(c1)ccc1cccc(c13)C2`
Outgoing: -1

Incoming: Entry C1CC(COCC2CO2)CCC1COCC1CO1 (stereo unspecified) : call = ?
Outgoing: -1

Incoming: What did the test return for `Oc1ccc(-c2ccc(O)cc2)cc1` ?
Outgoing: -1

Incoming: How did this test come out for `CC(C)C(=O)OCc1ccccc1` ?
Outgoing: -1

Incoming: Status in this test for O=C1OC(OC(=O)c2cccnc2Nc2cccc(C(F)(F)F)c2)c2ccccc21 (stereo unspecified) ?
Outgoing: -1

Incoming: Could you check what this test reported for `CCOCOCC` ?
Outgoing: -1

Incoming: Dear colleague, could you share the recorded outcome for `C=CC(=O)OCCOCC(CC)(COCCOC(=O)C=C)COCCOC(=O)C=C` when you have a moment?
Outgoing: -1

Incoming: What is the recorded call for this compound in the test? CCNc1nc(NC(C)CC)nc(OC)n1 (stereo unspecified)
Outgoing: -1

Incoming: Hello, I am checking results. What call was entered for `Cc1ccc(N)cc1O` ?
Outgoing: -1

Incoming: So what was the verdict on `CCCCCCCC/C=C\CCCCCCCC(=O)OCCOC(=O)CCCCCCC/C=C\CCCCCCCC` in this test?
Outgoing: -1

Incoming: Dear colleague, could you share the recorded outcome for `SCCCCCCCCS` when you have a moment?
Outgoing: -1

Incoming: Short answer needed: outcome of this test for `Brc1ccccn1` ?
Outgoing: -1

Incoming: Identify the outcome logged in this assay for the compound shown: `OCCCS`
Outgoing: -1

Incoming: Query: recorded result category for `c1ccc2c(c1)CCC2` in this test
Outgoing: -1

Incoming: Which outcome did this test record for the compound `CCOC(=O)COc1ccc(C)cc1` ?
Outgoing: -1

Incoming: Can you look up the reported call for `CC(=O)OC1CCCCC1` for me?
Outgoing: -1

---

# Study system: Progesterone receptor (Homo sapiens)
# Assay comment: qHTS assay to identify small molecule antagonists of the progesterone receptor (PR) signaling pathway (AID 1346795)
# Measurement conditions: PR-UAS-bla HEK293T, beta-lactamase FRET ratio, 16 h; series mostly up to 92.4 µM
Records with an inconclusive call do not appear. The source made the active and inactive calls. Calls follow the shape of the dose curve; as a rule, active = well fitted inhibition curve with a large enough effect in the signal ratio in the repeat runs (not every such curve was filed as active); inconclusive = weak or mixed curves; inactive = flat fitted curve, though single readings scatter; the % refers to the signal ratio.
Could you please pick one outcome from this set? Y = active, N = inactive

Incoming: Please share the test call associated with `Cc1cc(=O)[nH]c(=O)[nH]1` .
Outgoing: N

Incoming: Assay outcome for CCOC(=O)CC(C)O (stereo not given) : what was it?
Outgoing: N

Incoming: Outcome? `CC(C)C(=O)OCc1ccccc1`
Outgoing: N

Incoming: Each compound tested received a call. Report the one for `Cc1ccc(-n2[nH]c(C)c(N=Nc3cccc(-c4cccc(C(=O)O)c4)c3O)c2=O)cc1C` .
Outgoing: Y

Incoming: Status in this test for `Cc1cccc(C)n1` ?
Outgoing: N

Incoming: Could you please tell me the result logged for CCCC(C)CCC(C)=O (stereo not given) in this assay?
Outgoing: N

Incoming: Hello, I am checking results. What call was entered for `CCc1cccc(CC)c1NC(=O)C(=O)O` ?
Outgoing: N

Incoming: Per the assay record, what outcome was assigned to `c1cc2c3c(c1)ccc1cccc(c13)C2` ?
Outgoing: N

Incoming: What is the recorded call for this compound in the test? `CCCCCCCC(C)=O`
Outgoing: N

Incoming: Short answer needed: outcome of this test for `C=C(C)CCCC` ?
Outgoing: N

Incoming: // outcome(item) with item = `O=Cc1ccc(F)cc1`
Outgoing: N

Incoming: I'd appreciate the recorded outcome for `CCOB(OCC)OCC` from this test.
Outgoing: N

Incoming: Record request — test call for `COc1cc(C=C2CCC/C(=C\c3ccc(O)c(OC)c3)C2=O)ccc1O`
Outgoing: Y

Incoming: Lab log entry: `Cc1cccc(Br)c1` — outcome as called in the assay?
Outgoing: Y

Incoming: Status in this test for CO[Si](CCC1CCC2OC2C1)(OC)OC (stereo not given) ?
Outgoing: N

---

# Assay comment: qHTS RealTime-Glo MT Cell Viability Assay in HEK293 cells - 32 hour (AID 1224868); further: top concentration of the series differs between compounds; on the % scale 0 is the no-effect control and ±100 the full control effect; nearly all actives have a fitted effect of over 50% in size
# Measurement conditions: RealTime-Glo luminescence; series mostly up to 76.8 µM
# Description: National Center for Advancing Translational Sciences [NCATS] NIH Chemical Genomics Center [NCGC] U.S. Environmental Protection Agency [EPA] National Institutes of Environmental Health Sciences [NIEHS] National Toxicology Program [NTP] U.S. Food and Drug Administration [FDA] Measure of cell viability is critical in the cell-base assay. Analysis of cell viability is necessary for the characterization of cell responses to cytotoxic drugs and environmental stress. […]
Records with an inconclusive call do not appear. The source made the active and inactive calls. Calls follow the shape of the dose curve; as a rule, active = well fitted cell-killing curve with a large enough effect in the repeat runs; inconclusive = weak or mixed curves, or effect the other way; inactive = flat fitted curve, though single readings scatter.
Provide the reported activity change, negative = cytotoxic of each item.

Briefly, activity change, negative = cytotoxic measured for CCC(=O)CC(C)CC (stereo not given) : 3.77% [at 0.29 µM] (inactive)

Entry under test: `CCN1CCN(c2cc(-c3ccc(F)cc3)c3c(n2)CCCCCC3)CC1` . Its activity change, negative = cytotoxic was -11.6% [at 15.8 µM] (inactive)

Recorded result, `O=S(O)O` , activity change, negative = cytotoxic: 13.4% [at 15.8 µM] (inactive)

activity change, negative = cytotoxic reading for `N[C@@H](CSSC[C@H](N)C(=O)O)C(=O)O` : 5.6% [at 0.29 µM] (inactive)

What the record says about `C=CC(=C)CC/C=C(\C)CCC=C(C)C` : activity change, negative = cytotoxic is -12.8% [at 15.8 µM] (inactive)
